- ASSAY_SUMMARY: Selectivity index, ratio of CC50 for Influenza A virus (A/Viet Nam/1203/2004(H5N1)) infected MDCK cells to EC50 for antiviral activity against Influenza A virus (A/Viet Nam/1203/2004(H5N1)) infected in MDCK cells
- Type: toxicity, cell-based
- CONDITION_NOTES: dog; read-out: Ratio CC50/EC50
Measured selectivity ratio, listed per entry.
Format: numeric value only, no unit, no commentary.

COMPOUND | selectivity ratio
COC(=O)[C@]12CC[C@H](O)[C@H]1[C@@]13C=C(C(C)C)[C@@H]2C[C@@H]1[C@@]1(C)CCC[C@@](C)(C(=O)OC)[C@@H]1CC3 | 1

Prompt: Returns the measured selectivity ratio for the input compound. Input: COC(=O)[C@H](C)NC(=O)[C@]1(C)CCC[C@]2(C)[C@H]3C[C@H]4C(C(C)C)=C[C@]3(CC[C@H]21)[C@@H]1C(=O)OC(=O)[C@@H]14
Response: 1

Prompt: Returns the measured selectivity ratio for the input compound. Input: COC(=O)[C@H]1[C@@H](C(=O)OC)C2(C(=O)OC)CC[C@@H]3[C@](C)(CCC[C@@]3(C)C(=O)OC)[C@H]2C[C@H]1C(=O)C(C)C (stereo partly drawn)
Response: 1

Prompt: Returns the measured selectivity ratio for the input compound. Input: CC(C)C1=C[C@]23CC[C@@H]4[C@](C)(CCC[C@@]4(C)C(=O)O)[C@H]2C[C@H]1[C@H]1C(=O)OC(=O)[C@H]13
Response: 1.1

Prompt: Returns the measured selectivity ratio for the input compound. Input: COC(=O)[C@H](CCSC)NC(=O)[C@]1(C)CCC[C@]2(C)[C@H]3C[C@H]4C(C(C)C)=C[C@]3(CC[C@H]21)[C@@H]1C(=O)OC(=O)[C@@H]14
Response: 1

Prompt: Returns the measured selectivity ratio for the input compound. Input: COC(=O)[C@H](C)NC(=O)[C@]1(C)CCC[C@]2(C)[C@H]3C[C@H]4C(C(C)C)=C[C@]3(CC[C@H]21)[C@@H]1C(=O)CCC(=O)[C@@H]14
Response: 1.1

====

Measured EC50, listed per entry.
- ASSAY_SUMMARY: Antiviral activity against Influenza A virus (A/Brisbane/10/2007(H3N2)) infected in MDCK cells
- Type: functional, cell-based

The examples below pair each entry with its known result.
MOL_SMILES | EC50
COC(=O)[C@H](CCSC)NC(=O)[C@]1(C)CCC[C@]2(C)[C@H]3C[C@H]4C(C(C)C)=C[C@]3(CC[C@H]21)[C@@H]1C(=O)OC(=O)[C@@H]14 | > 30 µM
COC(=O)[C@]1(C)CCC[C@]2(C)[C@H]3C[C@H]4C(C(C)C)=C[C@]3(CC[C@H]21)[C@H]1[C@@H]4[C@@H](OC(=O)c2cccnc2)CC[C@@H]1OC(=O)c1cccnc1 | > 4.9 µM

Prompt: Returns the measured EC50 for the input molecule. Input: CC(C)C1=C[C@@]23CC[C@@H]4[C@](C)(CCC[C@@]4(C)C(=O)O)[C@H]2C[C@@H]1[C@H]1C(=O)CCC(=O)[C@H]13
Response: 32 µM

====

- Test system: Hepatitis C virus
- ASSAY_SUMMARY: Antiviral activity against HCV infected in human Huh7ET cells assessed as reduction in HCV RNA-derived luciferase activity at 20 uM by luciferase reporter gene assay
- Type: functional, Hepacivirus hominis
- CONDITION_NOTES: Huh-7
Measured inhibition at 20 µM, listed per entry.
The reply should contain only the number, in %.

The examples below pair each entry with its known result.
COMPOUND | UNIT_DESCRIPTOR | inhibition at 20 µM
CC(C)C1=C[C@@]23CC[C@@H]4[C@](C)(CCC[C@@]4(C)C(=O)O)[C@H]2C[C@@H]1[C@H]1C(=O)CCC(=O)[C@H]13 | % | 0
COC(=O)[C@H]1[C@@H](C(=O)OC)C2(C(=O)OC)CC[C@@H]3[C@](C)(CCC[C@@]3(C)C(=O)OC)[C@H]2C[C@H]1C(=O)C(C)C (some centres not stated) | % | 0.6
COC(=O)[C@]1(C)CCC[C@]2(C)[C@H]3CC4C(C(C)C)=C[C@]3(CC[C@H]21)[C@@H]1NC(=O)CC[C@H](O)[C@H]41 | % | 97.3
COC(=O)[C@]1(C)CCC[C@]2(C)[C@H]3C[C@H]4C(C(C)C)=C[C@]3(CC[C@H]21)[C@H]1[C@@H]4[C@@H](OC(=O)CCC(=O)O)CC[C@@H]1OC(=O)CCC(=O)O | % | 96.6
COC(=O)[C@]1(C)CCC[C@]2(C)[C@H]3C[C@H]4C(C(C)C)=C[C@]3(CC[C@H]21)[C@@H]1/C(=N/O)CCC2(OCCO2)[C@@H]14 | % | 97.9

Prompt: # returns recorded inhibition at 20 µM (system: Hepatitis C virus) for COC(=O)[C@H](C)NC(=O)[C@]1(C)CCC[C@]2(C)[C@H]3C[C@H]4C(C(C)C)=C[C@]3(CC[C@H]21)[C@@H]1C(=O)CCC(=O)[C@@H]14
Response: 60.8

Prompt: # returns recorded inhibition at 20 µM (system: Hepatitis C virus) for COC(=O)[C@]1(C)CCC[C@]2(C)[C@H]3C[C@H]4C(=C(C)C)C5O[C@@]6(O)CCC(=O)[C@H]4[C@@H]6[C@@]53CC[C@H]21
Response: 68.4

====

- ASSAY_SUMMARY: Antiviral activity against Influenza A virus (A/Brisbane/10/2007(H3N2)) infected in MDCK cells
- Type: functional, cell-based
Measured pEC50, listed per entry.
Convention used: pEC50 is expressed as -log10 of the molar concentration.

MOL_SMILES | MEASURED_RESULT
CC(C)C1=C[C@@]23CC[C@H]4[C@](C)(CO)CCC[C@]4(C)[C@H]2C[C@@H]1[C@@H]1[C@H]3[C@@H](O)CC[C@@H]1O | 4.49

Could you now consider this next molecule?
Prompt: Returns the measured pEC50 for the input molecule. Input: COC(=O)[C@]1(C)CCC[C@]2(C)[C@H]3C[C@H]4C(C(C)C)=C[C@]3(CC[C@H]21)[C@@H]1/C(=N/OC(C)=O)CC[C@H](OC(C)=O)[C@@H]14
Response: 5.51

====

Measured CC50, listed per entry.
- ASSAY_SUMMARY: Cytotoxicity against SARS coronavirus Urbani infected African green monkey Vero 76 cells
- Assay type: cell-based
- CONDITION_NOTES: chlorocebus sabaeus, Vero 76 cells infected with SARS coronavirus Urbani
The reply should contain only the number, in µM.

COMPOUND | CC50 (µM)
COC(=O)[C@]1(C)CCC[C@]2(C)[C@H]3C[C@H]4C(C(C)C)=C[C@]3(CC[C@H]21)[C@@H]1/C(=N/O)CCC2(OCCO2)[C@@H]14 | 2.4

Prompt: Returns the measured CC50 for the input compound. Input: COC(=O)[C@H]1[C@@H](C(=O)OC)C2(C(=O)OC)CC[C@@H]3[C@](C)(CCC[C@@]3(C)C(=O)OC)[C@H]2C[C@H]1C(=O)C(C)C (stereo not given in full)
Response: 30

Prompt: Returns the measured CC50 for the input compound. Input: COC(=O)[C@]1(C)CCC[C@]2(C)[C@H]3CC4C(C(C)C)=C[C@]3(CC[C@H]21)[C@@H]1NC(=O)CC[C@H](O)[C@H]41
Response: 32

Prompt: Returns the measured CC50 for the input compound. Input: COC(=O)[C@H](C)NC(=O)[C@]1(C)CCC[C@]2(C)[C@H]3C[C@H]4C(C(C)C)=C[C@]3(CC[C@H]21)[C@@H]1C(=O)CCC(=O)[C@@H]14
Response: 32

Prompt: Returns the measured CC50 for the input compound. Input: COC(=O)[C@]1(C)CCC[C@]2(C)[C@H]3C[C@H]4C(C(C)C)=C[C@]3(CC[C@H]21)[C@H]1[C@@H]4[C@@H](OC(=O)CCC(=O)O)CC[C@@H]1OC(=O)CCC(=O)O
Response: 3.6

====

- ASSAY_SUMMARY: Antiviral activity against Influenza A virus (A/Brisbane/10/2007(H3N2)) infected in MDCK cells
- Type: functional, cell-based
pEC50: −log10 of the molar value.
MEASURE: pEC50

The examples below pair each entry with its known result.
MOL_SMILES | pEC50
CC(C)C1=C[C@@]23CC[C@H]4[C@](C)(COC(=O)/C=C/c5ccccc5)CCC[C@]4(C)[C@H]2C[C@@H]1[C@@H]1[C@H]3[C@@H](OC(=O)/C=C/c2ccccc2)CC[C@@H]1OC(=O)/C=C/c1ccccc1 | 4.51
COC(=O)[C@]1(C)CCC[C@]2(C)[C@H]3C[C@H]4C(C(C)C)=C[C@]3(CC[C@H]21)[C@@H]1/C(=N/O)CC[C@H](O)[C@@H]14 | < 5.80

Could you now consider this next compound?
Prompt: Returns the measured pEC50 for the input compound. Input: COC(=O)[C@]1(C)CCC[C@]2(C)[C@H]3C[C@H]4C(C(C)C)=C[C@]3(CC[C@H]21)[C@@H]1C(=O)CCC(=O)[C@@H]14
Response: < 4.00
